test system: HIV-1 (IIIB strain); assay: MT-4 antiviral cytoprotection assay, five-day multi-cycle, wild type HIV-1; assay type: cell-based; conditions: CC50/EC50 ratio, wild type, MT-4
value_type: SI (selectivity index)
Could you respond with only the numeric value?

| compound | value_type | test_result |
| --- | --- | --- |
| N#Cc1ccc(Nc2nc(Cl)cc(Nc3c(F)cc(F)cc3F)n2)cc1 [Compound 30] | SI (selectivity index) | 378 |
| N#Cc1ccc(Nc2cc(N)nc(C(=O)c3c(F)cc(F)cc3F)n2)cc1 [Compound 12] | SI (selectivity index) | 24.3 |
| COc1cc(Oc2c(F)cc(F)cc2F)nc(Nc2ccc(C#N)cc2)n1 [Compound 32] | SI (selectivity index) | 926 |

Note down SI (selectivity index) recorded for N#Cc1ccc(Nc2cc(C(=O)c3c(F)cc(F)cc3F)nc(N)n2)cc1 [Compound 16] 0.025

Identify SI (selectivity index) associated with the compound COc1cc(F)c(Oc2cc(OC)nc(Nc3ccc(C#N)cc3)n2)c(F)c1 [Compound 31] 832

Find the measured SI (selectivity index) of N#Cc1ccc(Nc2nc(N)cc(C(=O)c3c(F)cc(F)cc3F)n2)cc1 [Compound 14] and report it. 935

* * *

assay: MT-4 cytotoxicity assay; assay type: cell-based; settings: human, MT-4 cells (mock-infected), CC50, MT-4 cell line, n = 3
The label Condition met is reserved for CC50 at 5 days strictly under 20 µM; Condition not met covers values equal to or above it.

Look over these answered cases.
| compound | classification |
| --- | --- |
| N#Cc1ccc(Nc2nc(Cl)cc(Oc3c(F)cc(F)cc3F)n2)cc1 | Condition met |
| O=C1Nc2ccc(Cl)cc2[C@@](C#CC2CC2)(C(F)(F)F)O1 [EFV, efavirenz, reference compound] | Condition not met |
| COc1cc(F)c(Oc2cc(Cl)nc(Nc3ccc(C#N)cc3)n2)c(F)c1 | Condition met |

Does the reported CC50 at 5 days of `COc1cc(F)c(Nc2cc(OC)nc(Nc3ccc(C#N)cc3)n2)c(F)c1` stay below 20 µM? Condition not met

Given `COc1cc(F)c(Nc2cc(Cl)nc(Nc3ccc(C#N)cc3)n2)c(F)c1` , is recorded CC50 at 5 days strictly lower than 20 µM? Condition met

Hi there! Is CC50 at 5 days for Cc1cc(C#N)cc(C)c1Oc1nc(Nc2ccc(C#N)cc2)nc(N)c1Br [ETR, etravirine, reference compound] below 20 µM, do you know? Condition met

Is the reported CC50 at 5 days for `COc1cc(F)c(C(=O)c2nc(N)cc(Nc3ccc(C#N)cc3)n2)c(F)c1` strictly below 20 µM? Condition met

Would you kindly verify if CC50 at 5 days of `COc1cc(F)c(Nc2cc(N)nc(Nc3ccc(C#N)cc3)n2)c(F)c1` is strictly less than 20 µM? Condition met

Check if CC50 at 5 days falls below 20 µM for `COc1cc(Oc2c(F)cc(F)cc2F)nc(Nc2ccc(C#N)cc2)n1` . Condition not met

Report whether reported CC50 at 5 days is lower than 20 µM (strictly) for `COc1cc(Nc2c(F)cc(F)cc2F)nc(Nc2ccc(C#N)cc2)n1` Condition met

Lab note: confirm whether the reported CC50 at 5 days for this compound is below 20 µM, equality not counting. compound: `COc1cc(F)c(Oc2cc(N)nc(Nc3ccc(C#N)cc3)n2)c(F)c1` Condition not met
